Test: Hematology assays in cynomolgus monkeys (Example 46)
Format: in vivo
Details: Day 55
Strand notation (5' to 3'): a small letter for the sugar, then the base; units joined by * are phosphorothioate-linked, units joined directly phosphodiester-linked; [ ] holds rarer units or linkages, { } end groups; capitals alone tell only the bases. e = 2'-O-(2-methoxyethyl) (MOE); [5mC] = 5-methylcytosine; d = 2'-deoxy (DNA)

{"substance": "ISIS 416858: MOE gapmer, nucleobases 1275 to 1318 of SEQ ID NO: 1 (Table 8) (antisense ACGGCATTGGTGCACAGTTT; MOE gapmer, wing and gap sizes not given here)", "hemoglobin content [g/dL]": 12.0}
{"substance": "ISIS 449710: 3-8-3, 4-8-4, 2-10-2, 3-10-3 or 4-10-4 MOE microwalk gapmer (Table 46) (antisense e[5mC]*eA*e[5mC]*dA*dG*dT*dT*dT*d[5mC]*dT*dG*dG*d[5mC]*eA*eG*eG)", "hemoglobin content [g/dL]": 12.7}
{"substance": "ISIS 449709: 3-8-3, 4-8-4, 2-10-2, 3-10-3 or 4-10-4 MOE microwalk gapmer (Table 46) (antisense eG*e[5mC]*eA*e[5mC]*dA*dG*dT*dT*dT*d[5mC]*dT*dG*dG*d[5mC]*eA*eG*eG*e[5mC])", "hemoglobin content [g/dL]": 12.5}
{"substance": "ISIS 449711: 3-8-3, 4-8-4, 2-10-2, 3-10-3 or 4-10-4 MOE microwalk gapmer (Table 46) (antisense eA*e[5mC]*dA*dG*dT*dT*dT*d[5mC]*dT*dG*dG*d[5mC]*eA*eG)", "hemoglobin content [g/dL]": 11.3}
{"substance": "ISIS 445522: 5-8-5 or 6-8-6 MOE microwalk gapmer (Table 44) (antisense eG*e[5mC]*eA*e[5mC]*eA*dG*dT*dT*dT*d[5mC]*dT*dG*dG*e[5mC]*eA*eG*eG*e[5mC])", "hemoglobin content [g/dL]": 12.0}

###

Assay: Liver function, ALT, AST, bilirubin in cynomolgus monkeys (Example 45)
Assay type: in vivo
Settings: plasma; day −14; escalating dose regimen
Each entry below lists one item and its recorded AST value.
value_type: AST (IU/L)

{"substance": "ISIS 416850: MOE gapmer, nucleobases 1275 to 1318 of SEQ ID NO: 1 (Table 8) (antisense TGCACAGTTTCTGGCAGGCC; MOE gapmer, wing and gap sizes not given here)", "measure_unit": "IU/L", "quantitative_readout": 81}
{"substance": "ISIS 417002: MOE gapmer, nucleobases 1275 to 1318 of SEQ ID NO: 1 (Table 8) (antisense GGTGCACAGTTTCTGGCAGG; MOE gapmer, wing and gap sizes not given here)", "measure_unit": "IU/L", "quantitative_readout": 114}
{"substance": "ISIS 416838: MOE gapmer, nucleobases 1018 to 1042 of SEQ ID NO: 1 (Table 6) (antisense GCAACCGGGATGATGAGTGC; MOE gapmer, wing and gap sizes not given here)", "measure_unit": "IU/L", "quantitative_readout": 139}
{"substance": "ISIS 416858: MOE gapmer, nucleobases 1275 to 1318 of SEQ ID NO: 1 (Table 8) (antisense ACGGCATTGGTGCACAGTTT; MOE gapmer, wing and gap sizes not given here)", "measure_unit": "IU/L", "quantitative_readout": 58}
{"substance": "ISIS 416864: MOE gapmer, nucleobases 1275 to 1318 of SEQ ID NO: 1 (Table 8) (antisense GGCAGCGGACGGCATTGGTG; MOE gapmer, wing and gap sizes not given here)", "measure_unit": "IU/L", "quantitative_readout": 76}

###

// values below are reported reticulocytes
Test: Hematology assays in cynomolgus monkeys (Example 45)
Format: in vivo
Conditions: day 29

{"substance": "ISIS 416838: MOE gapmer, nucleobases 1018 to 1042 of SEQ ID NO: 1 (Table 6) (antisense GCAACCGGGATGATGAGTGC; MOE gapmer, wing and gap sizes not given here)", "reticulocytes (%)": 1.6}
{"substance": "ISIS 416850: MOE gapmer, nucleobases 1275 to 1318 of SEQ ID NO: 1 (Table 8) (antisense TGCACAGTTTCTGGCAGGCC; MOE gapmer, wing and gap sizes not given here)", "reticulocytes (%)": 2.5}
{"substance": "ISIS 417002: MOE gapmer, nucleobases 1275 to 1318 of SEQ ID NO: 1 (Table 8) (antisense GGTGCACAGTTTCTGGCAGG; MOE gapmer, wing and gap sizes not given here)", "reticulocytes (%)": 1.6}

###

Experiment: Tolerability in Sprague-Dawley rats: hematology assays (Example 35)
Details: 50 mg/kg s.c. twice per week for 6 weeks
value_type: RBC

{"substance": "ISIS 416850: MOE gapmer, nucleobases 1275 to 1318 of SEQ ID NO: 1 (Table 8) (antisense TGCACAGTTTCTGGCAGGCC; MOE gapmer, wing and gap sizes not given here)", "quantitative_readout": 7}
{"substance": "ISIS 416864: MOE gapmer, nucleobases 1275 to 1318 of SEQ ID NO: 1 (Table 8) (antisense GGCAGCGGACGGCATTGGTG; MOE gapmer, wing and gap sizes not given here)", "quantitative_readout": 4}

###

Assay: Hematology assays in cynomolgus monkeys (Example 46)
Type: in vivo
Settings: Day 17
Strand notation (5' to 3'): a small letter for the sugar, then the base; units joined by * are phosphorothioate-linked, units joined directly phosphodiester-linked; [ ] holds rarer units or linkages, { } end groups; capitals alone tell only the bases. e = 2'-O-(2-methoxyethyl) (MOE); [5mC] = 5-methylcytosine; d = 2'-deoxy (DNA)
# RBC count annotations

{"substance": "ISIS 449708: 3-8-3, 4-8-4, 2-10-2, 3-10-3 or 4-10-4 MOE microwalk gapmer (Table 46) (antisense eA*e[5mC]*eA*dG*dT*dT*dT*d[5mC]*dT*dG*dG*e[5mC]*eA*eG)", "measure_unit": "µL⁻¹", "RBC count": "5.9e+06"}
{"substance": "ISIS 416850: MOE gapmer, nucleobases 1275 to 1318 of SEQ ID NO: 1 (Table 8) (antisense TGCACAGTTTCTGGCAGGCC; MOE gapmer, wing and gap sizes not given here)", "measure_unit": "µL⁻¹", "RBC count": "5.6e+06"}
{"substance": "ISIS 449709: 3-8-3, 4-8-4, 2-10-2, 3-10-3 or 4-10-4 MOE microwalk gapmer (Table 46) (antisense eG*e[5mC]*eA*e[5mC]*dA*dG*dT*dT*dT*d[5mC]*dT*dG*dG*d[5mC]*eA*eG*eG*e[5mC])", "measure_unit": "µL⁻¹", "RBC count": "5.9e+06"}
{"substance": "ISIS 449711: 3-8-3, 4-8-4, 2-10-2, 3-10-3 or 4-10-4 MOE microwalk gapmer (Table 46) (antisense eA*e[5mC]*dA*dG*dT*dT*dT*d[5mC]*dT*dG*dG*d[5mC]*eA*eG)", "measure_unit": "µL⁻¹", "RBC count": "5.6e+06"}
{"substance": "ISIS 445522: 5-8-5 or 6-8-6 MOE microwalk gapmer (Table 44) (antisense eG*e[5mC]*eA*e[5mC]*eA*dG*dT*dT*dT*d[5mC]*dT*dG*dG*e[5mC]*eA*eG*eG*e[5mC])", "measure_unit": "µL⁻¹", "RBC count": "5.6e+06"}
{"substance": "ISIS 449707: 3-8-3, 4-8-4, 2-10-2, 3-10-3 or 4-10-4 MOE microwalk gapmer (Table 46) (antisense e[5mC]*eA*e[5mC]*eA*dG*dT*dT*dT*d[5mC]*dT*dG*dG*e[5mC]*eA*eG*eG)", "measure_unit": "µL⁻¹", "RBC count": "5.7e+06"}

###

Test: Hematology assays in cynomolgus monkeys (Example 45)
Format: in vivo
Conditions: day 36; escalating dose regimen
Method: Groups, each consisting of two male and three female monkeys, were injected subcutaneously with ISIS 416838, ISIS 416850, ISIS 416858, ISIS 416864, or ISIS 417002 in escalating doses. […] Body weights were measured weekly. […]

{"substance": "ISIS 416838: MOE gapmer, nucleobases 1018 to 1042 of SEQ ID NO: 1 (Table 6) (antisense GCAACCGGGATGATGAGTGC; MOE gapmer, wing and gap sizes not given here)", "MCH (pg)": 23}
{"substance": "ISIS 417002: MOE gapmer, nucleobases 1275 to 1318 of SEQ ID NO: 1 (Table 8) (antisense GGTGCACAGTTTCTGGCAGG; MOE gapmer, wing and gap sizes not given here)", "MCH (pg)": 23}

###

Conditions: rat, in vivo, sc, 50 mg/kg
e = 2'-O-(2-methoxyethyl) (MOE); d = 2'-deoxy (DNA)
value_type: RBC

{"substance": "ISIS 416851: MOE gapmer, nucleobases 1275 to 1318 of SEQ ID NO: 1 (Table 8) (antisense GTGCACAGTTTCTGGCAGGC; MOE gapmer, wing and gap sizes not given here)", "result": "7.4 10^6/μL"}
{"substance": "ISIS 416856: MOE gapmer, nucleobases 1275 to 1318 of SEQ ID NO: 1 (Table 8) (antisense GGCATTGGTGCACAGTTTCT; MOE gapmer, wing and gap sizes not given here)", "result": "7.7 10^6/μL"}
{"substance": "ISIS 416863: MOE gapmer, nucleobases 1275 to 1318 of SEQ ID NO: 1 (Table 8) (antisense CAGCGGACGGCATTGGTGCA; MOE gapmer, wing and gap sizes not given here)", "result": "7.6 10^6/μL"}
{"substance": "ISIS 416866: MOE gapmer, nucleobases 1275 to 1318 of SEQ ID NO: 1 (Table 8) (antisense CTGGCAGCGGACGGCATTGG; MOE gapmer, wing and gap sizes not given here)", "result": "7.8 10^6/μL"}
{"substance": "ISIS 416848: MOE gapmer, nucleobases 1275 to 1318 of SEQ ID NO: 1 (Table 8) (antisense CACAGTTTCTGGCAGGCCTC; MOE gapmer, wing and gap sizes not given here)", "result": "6.0 10^6/μL"}
{"substance": "ISIS 416861: MOE gapmer, nucleobases 1275 to 1318 of SEQ ID NO: 1 (Table 8) (antisense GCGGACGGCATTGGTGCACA; MOE gapmer, wing and gap sizes not given here)", "result": "7.7 10^6/μL"}
{"substance": "ISIS 412223: 5-10-5 MOE gapmer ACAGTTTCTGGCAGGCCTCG (sugars from the 5' end e5 d10 e5, backbone and methylation of C not given here)", "result": "7.2 10^6/μL"}
{"substance": "ISIS 412224: 5-10-5 MOE gapmer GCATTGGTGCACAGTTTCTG (sugars from the 5' end e5 d10 e5, backbone and methylation of C not given here)", "result": "7.4 10^6/μL"}
{"substance": "ISIS 416859: MOE gapmer, nucleobases 1275 to 1318 of SEQ ID NO: 1 (Table 8) (antisense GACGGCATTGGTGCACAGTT; MOE gapmer, wing and gap sizes not given here)", "result": "7.8 10^6/μL"}
{"substance": "ISIS 416852: MOE gapmer, nucleobases 1275 to 1318 of SEQ ID NO: 1 (Table 8) (antisense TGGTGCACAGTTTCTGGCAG; MOE gapmer, wing and gap sizes not given here)", "result": "7.2 10^6/μL"}
